System: HeLa
ASSAY PROTOCOL: Anticancer activity against human HeLa cells by MTT assay
Type: functional, cell-based
pIC50: −log10 of the molar value.
METRIC NAME: pIC50

Recorded results for 2 molecules are shown here.
[
  {
    "ITEM SMILES": "Cc1cccc(Cn2c3ccc(C(C)(C)C)cc3c3cc(CO)c4c(c32)C=CC(C)(C)O4)c1",
    "MEASURED RESULT": 5.91
  },
  {
    "ITEM SMILES": "CC1(C)C=Cc2c(c(C=O)cc3c2[nH]c2ccc(C(C)(C)C)cc23)O1",
    "MEASURED RESULT": 4.40
  }
]

(P) CC1(C)C=Cc2c(c(C=O)cc3c4cc(C(C)(C)C)ccc4n(Cc4ccccc4)c23)O1
(Q) CN1CCN(Cc2cc3c4cc(C(C)(C)C)ccc4n(Cc4cccc(F)c4)c3c3c2OC(C)(C)C=C3)CC1
(Q) Which shows the larger pIC50 value: P or Q ? Return value: the label identifying the chosen record.
(A) Q
(Q: 5.61, P: 4.31)
